Provide the reported melting point of each item.

Recorded results for 5 compounds are shown here.
> print(dat)
                                   compound  reported.result
1  CCOC(=O)C1C(=O)C=C(c2ccccc2)N=C1c1ccccc1 (stereo unspecified)    177 to 179 °C
2  COc1ccc(NC2SC(=O)NC2=O)cc1 (stereo unspecified)    180 to 181 °C
3                           Nc1cc(O)cc(O)c1           150 °C
4  CN(CCOc1ccc(C=C2SC(=O)NC2=O)cc1)c1ncccn1    189 to 190 °C
5  CC(C)(C)NCC(O)COc1ccccc1-c1ccc(=S)[nH]n1 (stereo unspecified)    186 to 189 °C

# ---- query compound ----
Return melting point for the following compound: COc1cc(N2CCN(C(=O)Cn3nc(C4=NCCN4)c4cccnc43)CC2)ccc1Cl 133 to 135 °C
